Here the recorded cytotoxicity at 10 µM is given for each entry.
test: Toxicity liver stage against HepG2, at 10uM; format: cell-based; set-up: test concentration 10 uM, cell line HepG2-A16-CD81EGFP; settings: human, HepG2-A16-CD81EGFP cells; read-out: INHIBITION
Form entry: value (%) — number only.

Below are worked cases with known answers.
{"columns": ["compound", "cytotoxicity at 10 µM / %"],
 "data": [
  ["CCN1C(=O)CC[C@@H]2[C@H]1CCN2S(=O)(=O)Cc1ccc(C)cc1", 0.0218],
  ["N#Cc1cccc(CN2CC[C@@H]3CO[C@@H](CN4CCCC4)[C@@H]3C2)c1", -0.159]
]}

For record `Cc1noc(C)c1CCCNC(=O)Nc1ccc2c(c1)COC2` the listed cytotoxicity at 10 µM is 3.27

From: ChEMBL document CHEMBL4513216
